Tested on: NCI-H1876 tumor spheroid viability
Assay: Anticancer human tumor NCI-H1876 cell line growth inhibition
Conditions: second compound 94.9 pM; first compound 0.0316 µM; active compounds read low; spheroids with HUVEC and MSC
property.name: viability, T/C (%)
// return numeric value only (unit: %, not printed)

CC(C)n1c(=O)n(C)c2cnc3cc(F)c(-c4ccc(OCCCN5CCCCC5)nc4)cc3c21 + COc1cc2c(cc1O)CCNC21CSC2c3c(OC(C)=O)c(C)c4c(c3C(COC1=O)N1C(O)C3Cc5cc(C)c(OC)c(O)c5C(C21)N3C)OCO4: 66.3

Can you look up viability, T/C on NCI-H1876 tumor spheroid viability for Cc1cc(C)c(CNC(=O)c2cc(-c3ccc(CN4CCOCC4)cc3)cc3c2cnn3C2CCCC2)c(=O)[nH]1 + COc1cc2c(cc1O)CCNC21CSC2c3c(OC(C)=O)c(C)c4c(c3C(COC1=O)N1C(O)C3Cc5cc(C)c(OC)c(O)c5C(C21)N3C)OCO4 ? 93.1

----------
Test system: NCI-H1876 tumor spheroid viability
Test: Anticancer human tumor NCI-H1876 cell line growth inhibition; active means viability on the fitted dose curve at most 10% of control; inactive means the rest
Settings: second compound 0.00949 µM; first compound 1 µM; spheroids with HUVEC and MSC
Can you answer with just one of these options? 1 = active, 0 = inactive

COc1ccc([C@@H](O)c2cc(-c3ncnc4cc(N5CCOCC5)ccc34)c(F)cc2Cl)nn1 + CC[C@@]1(O)C(=O)OCc2c1cc1n(c2=O)Cc2cc3c(CN(C)C)c(O)ccc3nc2-1: 0
[2H]c1nc(C)nc([2H])c1-c1cc(NC[C@@H](C)c2cccc3c(C(=O)NC)ccnc23)ncn1 + CC[C@@]1(O)C(=O)OCc2c1cc1n(c2=O)Cc2cc3c(CN(C)C)c(O)ccc3nc2-1: 0

Here is the next item to consider.
Given CC(C)n1c(=O)n(C)c2cnc3cc(F)c(-c4ccc(OCCCN5CCCCC5)nc4)cc3c21 + CC[C@@]1(O)C(=O)OCc2c1cc1n(c2=O)Cc2cc3c(CN(C)C)c(O)ccc3nc2-1 , state the outcome it received in this test. 1

----------
Tested on: NCI-H1876 tumor spheroid viability
Test: Anticancer human tumor NCI-H1876 cell line growth inhibition;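 also: spheroids exposed to compounds for seven days before the viability read; percent of DMSO vehicle control viability so 100% = vehicle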
Conditions: second compound 100 µM; first compound 3.16 µM; active compounds read low; spheroids with HUVEC and MSC
property.name: viability, T/C (%)
Express it in %; write the number only.

COc1cc(C)[nH]c(=O)c1CN1CCc2c(Cl)cc(C(OC)C3COC3)c(Cl)c2C1=O (stereo unspecified) + Cn1nnc2c(C(N)=O)ncn2c1=O: 81.7
COc1ccc([C@@H](O)c2cc(-c3ncnc4cc(N5CCOCC5)ccc34)c(F)cc2Cl)nn1 + Cn1nnc2c(C(N)=O)ncn2c1=O: 17.8
CC(C)n1c(=O)n(C)c2cnc3cc(F)c(-c4ccc(OCCCN5CCCCC5)nc4)cc3c21 + Cn1nnc2c(C(N)=O)ncn2c1=O: 25.9
Cc1cc(C)c(CNC(=O)c2cc(-c3ccc(CN4CCOCC4)cc3)cc3c2cnn3C2CCCC2)c(=O)[nH]1 + Cn1nnc2c(C(N)=O)ncn2c1=O: 25.2
CC1COCCN1c1cc(-c2ccnn2C)c2ccnc(-c3ccn[nH]3)c2n1 (stereo unspecified) + Cn1nnc2c(C(N)=O)ncn2c1=O: 28.5

Please examine the following record next.
Record lookup: for NCI-H1876 tumor spheroid viability, what viability, T/C belongs to [2H]c1nc(C)nc([2H])c1-c1cc(NC[C@@H](C)c2cccc3c(C(=O)NC)ccnc23)ncn1 + Cn1nnc2c(C(N)=O)ncn2c1=O ? 65.1

----------
Tested on: NCI-H1876 tumor spheroid viability
Assay: Anticancer human tumor NCI-H1876 cell line growth inhibition;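 also: spheroids exposed to compounds for seven days before the viability read; percent of DMSO vehicle control viability so 100% = vehicle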
Details: second compound 0.000949 µM; first compound 10 µM; active compounds read low; spheroids with HUVEC and MSC
// returns condition not met unless viability, T/C is strictly below 2%, in which case condition met

Use the examples below as a reference point.
COc1ccc([C@@H](O)c2cc(-c3ncnc4cc(N5CCOCC5)ccc34)c(F)cc2Cl)nn1 + COc1cc2c(cc1O)CCNC21CSC2c3c(OC(C)=O)c(C)c4c(c3C(COC1=O)N1C(O)C3Cc5cc(C)c(OC)c(O)c5C(C21)N3C)OCO4: condition met
Cc1cc(C)c(CNC(=O)c2cc(-c3ccc(CN4CCOCC4)cc3)cc3c2cnn3C2CCCC2)c(=O)[nH]1 + COc1cc2c(cc1O)CCNC21CSC2c3c(OC(C)=O)c(C)c4c(c3C(COC1=O)N1C(O)C3Cc5cc(C)c(OC)c(O)c5C(C21)N3C)OCO4: condition not met
[2H]c1nc(C)nc([2H])c1-c1cc(NC[C@@H](C)c2cccc3c(C(=O)NC)ccnc23)ncn1 + COc1cc2c(cc1O)CCNC21CSC2c3c(OC(C)=O)c(C)c4c(c3C(COC1=O)N1C(O)C3Cc5cc(C)c(OC)c(O)c5C(C21)N3C)OCO4: condition not met

Turning to the following compound.
Is viability, T/C strictly under 2% for the entry CC(C)n1c(=O)n(C)c2cnc3cc(F)c(-c4ccc(OCCCN5CCCCC5)nc4)cc3c21 + COc1cc2c(cc1O)CCNC21CSC2c3c(OC(C)=O)c(C)c4c(c3C(COC1=O)N1C(O)C3Cc5cc(C)c(OC)c(O)c5C(C21)N3C)OCO4 ? condition not met

----------
Test system: NCI-H1876 tumor spheroid viability
Assay: Anticancer human tumor NCI-H1876 cell line growth inhibition; active = viability on the fitted dose curve at most 10% of control; inactive = the rest;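 also: spheroids exposed to compounds for seven days before the viability read; percent of DMSO vehicle control viability so 100% = vehicle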
Conditions: second compound 0.0003 µM; first compound 1 µM; spheroids with HUVEC and MSC
Pick one and only one: 1 = active, 0 = inactive

Check out these entries, answers already filled in.
COc1ccc([C@@H](O)c2cc(-c3ncnc4cc(N5CCOCC5)ccc34)c(F)cc2Cl)nn1 + COc1cc2c(cc1O)CCNC21CSC2c3c(OC(C)=O)c(C)c4c(c3C(COC1=O)N1C(O)C3Cc5cc(C)c(OC)c(O)c5C(C21)N3C)OCO4: 1
CC(C)n1c(=O)n(C)c2cnc3cc(F)c(-c4ccc(OCCCN5CCCCC5)nc4)cc3c21 + COc1cc2c(cc1O)CCNC21CSC2c3c(OC(C)=O)c(C)c4c(c3C(COC1=O)N1C(O)C3Cc5cc(C)c(OC)c(O)c5C(C21)N3C)OCO4: 0
[2H]c1nc(C)nc([2H])c1-c1cc(NC[C@@H](C)c2cccc3c(C(=O)NC)ccnc23)ncn1 + COc1cc2c(cc1O)CCNC21CSC2c3c(OC(C)=O)c(C)c4c(c3C(COC1=O)N1C(O)C3Cc5cc(C)c(OC)c(O)c5C(C21)N3C)OCO4: 0

Continue with the molecule presented below.
Just curious, what result did CC1COCCN1c1cc(-c2ccnn2C)c2ccnc(-c3ccn[nH]3)c2n1 (centres undefined) + COc1cc2c(cc1O)CCNC21CSC2c3c(OC(C)=O)c(C)c4c(c3C(COC1=O)N1C(O)C3Cc5cc(C)c(OC)c(O)c5C(C21)N3C)OCO4 get here? 1

----------
Test system: NCI-H1876 tumor spheroid viability
Experiment: Anticancer human tumor NCI-H1876 cell line growth inhibition;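 also: spheroids exposed to compounds for seven days before the viability read; percent of DMSO vehicle control viability so 100% = vehicle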
Conditions: second compound 0.0003 µM; first compound 0.316 µM; active compounds read low; spheroids with HUVEC and MSC
Kindly apply the following: Yes if viability, T/C is less than 30%, No in every other case.

COc1cc(C)[nH]c(=O)c1CN1CCc2c(Cl)cc(C(OC)C3COC3)c(Cl)c2C1=O (stereo unspecified) + COc1cc2c(cc1O)CCNC21CSC2c3c(OC(C)=O)c(C)c4c(c3C(COC1=O)N1C(O)C3Cc5cc(C)c(OC)c(O)c5C(C21)N3C)OCO4: Yes
CC1COCCN1c1cc(-c2ccnn2C)c2ccnc(-c3ccn[nH]3)c2n1 (stereo unspecified) + COc1cc2c(cc1O)CCNC21CSC2c3c(OC(C)=O)c(C)c4c(c3C(COC1=O)N1C(O)C3Cc5cc(C)c(OC)c(O)c5C(C21)N3C)OCO4: Yes
COc1ccc([C@@H](O)c2cc(-c3ncnc4cc(N5CCOCC5)ccc34)c(F)cc2Cl)nn1 + COc1cc2c(cc1O)CCNC21CSC2c3c(OC(C)=O)c(C)c4c(c3C(COC1=O)N1C(O)C3Cc5cc(C)c(OC)c(O)c5C(C21)N3C)OCO4: Yes
CC(C)n1c(=O)n(C)c2cnc3cc(F)c(-c4ccc(OCCCN5CCCCC5)nc4)cc3c21 + COc1cc2c(cc1O)CCNC21CSC2c3c(OC(C)=O)c(C)c4c(c3C(COC1=O)N1C(O)C3Cc5cc(C)c(OC)c(O)c5C(C21)N3C)OCO4: Yes
Cc1cc(C)c(CNC(=O)c2cc(-c3ccc(CN4CCOCC4)cc3)cc3c2cnn3C2CCCC2)c(=O)[nH]1 + COc1cc2c(cc1O)CCNC21CSC2c3c(OC(C)=O)c(C)c4c(c3C(COC1=O)N1C(O)C3Cc5cc(C)c(OC)c(O)c5C(C21)N3C)OCO4: No

// next entry
Field: below-cutoff. Rule: recorded viability, T/C strictly less than 30%. Subject: [2H]c1nc(C)nc([2H])c1-c1cc(NC[C@@H](C)c2cccc3c(C(=O)NC)ccnc23)ncn1 + COc1cc2c(cc1O)CCNC21CSC2c3c(OC(C)=O)c(C)c4c(c3C(COC1=O)N1C(O)C3Cc5cc(C)c(OC)c(O)c5C(C21)N3C)OCO4 No

Where these numbers come from: PubChem BioAssay AID1845207
